target: UniProt P51677
Sequence (P51677 1-355): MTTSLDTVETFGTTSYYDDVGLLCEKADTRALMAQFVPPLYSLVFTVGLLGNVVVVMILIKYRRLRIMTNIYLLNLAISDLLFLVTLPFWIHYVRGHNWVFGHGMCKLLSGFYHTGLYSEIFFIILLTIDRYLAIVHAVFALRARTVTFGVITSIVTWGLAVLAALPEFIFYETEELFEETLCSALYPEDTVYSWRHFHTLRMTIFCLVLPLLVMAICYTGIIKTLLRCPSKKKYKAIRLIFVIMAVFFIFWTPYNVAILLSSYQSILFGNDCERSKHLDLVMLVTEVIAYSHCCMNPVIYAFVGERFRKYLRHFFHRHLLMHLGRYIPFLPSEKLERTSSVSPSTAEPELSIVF
experimental-endpoint: IC50
Could you give the number and then its unit, please?

## Input Please report the recorded IC50 for CCc1ccccc1NC(=O)N[C@@H](C[N+]1(CC)CCC(Cc2ccc(Cl)c(Cl)c2)CC1)C(C)(C)C (stereo partly shown) .
## Output 198 nM
